Hey, just so you know, these numbers are from the Human Domainome abundance scans (Beltran et al. 2025).

B1: Glucocorticoid receptor, residues 419 to 494; numbered along this chain, P04150 (parent)
chain: KLCLVCSDEASGCHYGVLTCGSCKVFFKRAVEGQHNYLCAGRNDCIIDKIRRKNCPACRYRKCLQAGMNLEARKTK

variants of: B1; assay: abundance fitness (aPCA) (normalised: wild type 0, dead -1); higher = more abundant; growth selection in yeast, the domain comes from the species named; details: Homo sapiens
measurement.label: abundance fitness

Consider the following items and state reported abundance fitness for each.
1. L70C
2. R59S
3. P56K
4. I47P
5. A30F
6. A40G
7. L38T

1: -0.029; 2: -0.81; 3: -0.108; 4: -0.442; 5: -0.142; 6: -0.04; 7: -0.035

Consider the following items and state reported abundance fitness for each.
1. H35K
2. A66M
3. N54E
4. Q65Y
5. C39S
6. M68L
7. N36P
8. R29L

-0.002
-0.031
-0.025
-0.09
-0.927
-0.133
-0.05
-0.017
